System: warm season plant species
Assay: B2 Post-emergence efficacy Test 2, warm season plant species
Assay type: in vivo
Settings: Setaria faberi, 250 g/Ha, 15 days after application, 0-100 scale, 0=no damage, 100=total kill
Recorded Endpoint: Herbicidal activity, SETFA
Reply: number alone, nothing else.

[
  {
    "Compound": "Cc1nn(C)c(=O)c(-c2c(F)ccc(Cl)c2CCc2ccc(F)cc2)c1O [Compound 1.048]",
    "Assayed Target": "warm season plant species",
    "Herbicidal activity, SETFA": 80
  },
  {
    "Compound": "Cc1nn(C)c(=O)c(-c2c(F)ccc(Cl)c2CCc2ccc(F)cc2)c1OC(=O)C(C)C [Compound 1.125]",
    "Assayed Target": "warm season plant species",
    "Herbicidal activity, SETFA": 20
  },
  {
    "Compound": "Cc1nn(C)c(=O)c(-c2c(F)ccc(Cl)c2CCc2ccc(C#N)cc2)c1O [Compound 1.024]",
    "Assayed Target": "warm season plant species",
    "Herbicidal activity, SETFA": 90
  },
  {
    "Compound": "Cc1nn(C)c(=O)c(-c2c(F)ccc(Cl)c2CCc2ccc(Cl)cc2)c1OC(=O)C(C)C [Compound 1.089]",
    "Assayed Target": "warm season plant species",
    "Herbicidal activity, SETFA": 60
  }
]

-- ask Output reported Herbicidal activity, SETFA of the compound Cc1nn(C)c(=O)c(-c2c(F)ccc(Cl)c2CCc2ccccc2C(F)(F)F)c1O [Compound 1.066] on warm season plant species.
-- reply 90

====

System: cool season plant species
Test: B2 Post-emergence efficacy Test 2, cool season plant species
Assay type: in vivo
Conditions: BRSNN, 30 g/Ha, 15 days after application, 0=no damage, 100=total kill
Recorded Endpoint: Herbicidal activity (0-100 scale) BRSNN
Write the number on its own, no unit after it.

Consider the following illustrative entries.
[
  {
    "Compound": "Cc1nn(C)c(=O)c(-c2c(F)ccc(Cl)c2CCc2ccc(F)cc2)c1OC(=O)C(C)C",
    "Recorded Endpoint": "Herbicidal activity (0-100 scale) BRSNN",
    "Readout Value": 80
  },
  {
    "Compound": "Cc1nn(C)c(=O)c(-c2c(F)ccc(Cl)c2CCc2ccc(F)cc2)c1O",
    "Recorded Endpoint": "Herbicidal activity (0-100 scale) BRSNN",
    "Readout Value": 90
  }
]

-- ask Write down Herbicidal activity (0-100 scale) BRSNN measured for item `Cc1nn(C)c(=O)c(-c2c(F)ccc(Cl)c2CCc2ccc(Cl)cc2)c1OC(=O)C(C)C`
-- reply 80

-- ask Return value of Herbicidal activity (0-100 scale) BRSNN for input `Cc1nn(C)c(=O)c(-c2c(F)ccc(Cl)c2CCc2ccccc2C(F)(F)F)c1O` , no commentary.
-- reply 90

-- ask Complete the entry with Herbicidal activity (0-100 scale) BRSNN for `Cc1nn(C)c(=O)c(-c2c(F)ccc(Cl)c2CCc2ccc(C#N)cc2)c1O`
-- reply 90

====

System: warm season plant species
Test: B2 Post-emergence efficacy Test 2, warm season plant species
Type: in vivo
Settings: Digitaria sanguinalis, 30 g/Ha, 15 days after application, 0-100 scale, 0=no damage, 100=total kill
Documented Herbicidal activity, DIGSA across a set of compounds
Field format: numeric only.

[
  {
    "Compound": "Cc1nn(C)c(=O)c(-c2c(F)ccc(Cl)c2CCc2ccc(F)cc2)c1OC(=O)C(C)C",
    "Recorded Endpoint": "Herbicidal activity, DIGSA",
    "Readout Value": 0
  }
]

-- ask Give the value of Herbicidal activity, DIGSA reported for the following: `Cc1nn(C)c(=O)c(-c2c(F)ccc(Cl)c2CCc2ccc(F)cc2)c1O`
-- reply 10

-- ask Kindly indicate its recorded Herbicidal activity, DIGSA. Item: `Cc1nn(C)c(=O)c(-c2c(F)ccc(Cl)c2CCc2ccc(Cl)cc2)c1OC(=O)C(C)C`
-- reply 0

-- ask Please report the measured Herbicidal activity, DIGSA for `Cc1nn(C)c(=O)c(-c2c(F)ccc(Cl)c2CCc2ccc(C#N)cc2)c1O`
-- reply 20

-- ask Please list Herbicidal activity, DIGSA recorded for the compound `Cc1nn(C)c(=O)c(-c2c(F)ccc(Cl)c2CCc2ccccc2C(F)(F)F)c1O`
-- reply 20
